testedOn: F508delCFTR (Homo sapiens, UniProt P13569, DEL508-508)
Construct: expressed in transfected cells; host or cells: CFBE41o- (human lung derived epithelial cell line), doxycycline-inducible expression
Sequence (P13569 with tags, fused parts or gaps DEL508-508): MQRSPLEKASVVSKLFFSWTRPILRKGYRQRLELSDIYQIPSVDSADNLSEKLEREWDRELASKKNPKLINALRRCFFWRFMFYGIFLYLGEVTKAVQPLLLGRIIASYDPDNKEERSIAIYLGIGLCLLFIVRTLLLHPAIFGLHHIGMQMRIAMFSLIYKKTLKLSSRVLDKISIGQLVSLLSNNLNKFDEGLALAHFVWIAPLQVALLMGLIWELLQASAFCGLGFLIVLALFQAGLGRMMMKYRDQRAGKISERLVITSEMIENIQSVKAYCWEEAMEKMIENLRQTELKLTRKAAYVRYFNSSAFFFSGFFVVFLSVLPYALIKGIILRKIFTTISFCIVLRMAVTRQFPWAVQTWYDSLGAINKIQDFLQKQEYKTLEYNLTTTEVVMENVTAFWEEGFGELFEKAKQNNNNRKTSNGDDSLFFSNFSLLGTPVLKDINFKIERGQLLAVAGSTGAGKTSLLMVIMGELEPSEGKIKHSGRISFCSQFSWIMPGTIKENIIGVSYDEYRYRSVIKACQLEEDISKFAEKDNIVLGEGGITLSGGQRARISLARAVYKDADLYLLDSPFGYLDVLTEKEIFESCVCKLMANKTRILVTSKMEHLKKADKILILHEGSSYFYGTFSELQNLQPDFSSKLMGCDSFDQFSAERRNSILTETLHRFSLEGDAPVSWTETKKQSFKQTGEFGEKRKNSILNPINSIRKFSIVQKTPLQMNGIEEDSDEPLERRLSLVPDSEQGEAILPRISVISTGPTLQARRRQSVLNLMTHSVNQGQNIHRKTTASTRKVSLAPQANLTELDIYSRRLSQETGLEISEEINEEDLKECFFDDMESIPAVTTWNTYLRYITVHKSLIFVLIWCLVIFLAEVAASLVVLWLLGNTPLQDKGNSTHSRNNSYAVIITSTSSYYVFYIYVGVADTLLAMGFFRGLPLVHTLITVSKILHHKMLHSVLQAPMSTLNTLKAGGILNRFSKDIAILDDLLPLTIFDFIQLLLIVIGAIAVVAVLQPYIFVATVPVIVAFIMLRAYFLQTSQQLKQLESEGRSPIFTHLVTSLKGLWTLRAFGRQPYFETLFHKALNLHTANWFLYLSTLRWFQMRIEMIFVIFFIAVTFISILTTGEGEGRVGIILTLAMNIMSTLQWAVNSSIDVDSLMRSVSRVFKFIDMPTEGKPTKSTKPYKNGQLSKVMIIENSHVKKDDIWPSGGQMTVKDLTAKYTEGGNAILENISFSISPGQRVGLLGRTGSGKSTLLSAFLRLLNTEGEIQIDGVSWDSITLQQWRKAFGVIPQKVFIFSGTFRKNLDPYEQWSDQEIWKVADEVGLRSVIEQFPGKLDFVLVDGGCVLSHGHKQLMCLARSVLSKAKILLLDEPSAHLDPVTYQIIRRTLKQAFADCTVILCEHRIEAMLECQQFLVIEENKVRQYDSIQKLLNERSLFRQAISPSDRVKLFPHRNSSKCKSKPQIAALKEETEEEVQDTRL
testName: Cell Surface Expression-Horse Radish Peroxidase (CSE-HRP) assay
Format: cell-based
measurementParameters: CFBE41o-F508delCFTR-HRP cells; test compound without co-corrector; 18-24 hours at 33° C.; read-out: EC50 (without co-corrector)
parameterMeasured: EC50

1) COc1ncc(C(F)(F)F)cc1CO[C@H]1[C@H](C(C)(C)C)[C@@H](C(=O)O)N(C(=O)[C@@H]2CCCCO2)[C@H]1c1ccccc1-c1ccoc1 | 1000 to 10000 nM
2) CCOC(=O)N1[C@H](C(=O)O)[C@@H](C(C)(C)C)[C@H](OCc2cc(C(F)(F)F)cnc2OC)[C@@H]1c1cccc(C(C)(C)C)c1 | < 1000 nM
3) COc1nc(C(C)(C)C)ccc1CO[C@H]1[C@H](C(C)(C)C)[C@@H](C(=O)O)N(C(=O)OC(C)C)[C@H]1c1ccccc1 | 1000 to 10000 nM
4) COc1ncc(C2CCC2)cc1CO[C@H]1[C@H](C(C)(C)C)[C@@H](C(=O)O)N(C(=O)[C@@H]2CCCCO2)[C@H]1c1ccccc1C | 1000 to 10000 nM
5) COc1ncc(C(C)(C)C)cc1CO[C@@H]1[C@H](C(C)(C)C)[C@@H](C(=O)O)N(C(=O)OC(C)C)[C@H]1c1ccccc1F | > 10000 nM
6) CCOc1cncc(-c2ccccc2[C@H]2[C@@H](OCc3cc(C(F)(F)F)cnc3OC)[C@H](C(C)(C)C)[C@@H](C(=O)O)N2C(=O)[C@@H]2CCCCO2)c1 | 1000 to 10000 nM
7) COc1ncc(C(F)(F)F)cc1CO[C@H]1[C@H](C(C)(C)OC)[C@@H](C(=O)O)N(C(=O)OC(C)C)[C@H]1c1ccccc1C(C)C | < 1000 nM
8) COc1ccc(C(C)(C)C)cc1CO[C@H]1[C@H](C(C)(C)C)[C@@H](C(=O)O)N(C(=O)[C@@H]2CCCCO2)[C@H]1c1ccccc1C | < 1000 nM
9) COc1ccc(C(F)(F)F)cc1[C@@](O)(CO)CO[C@H]1[C@H](C(C)(C)C)[C@@H](C(=O)O)N(C(=O)[C@@H]2CCCCO2)[C@H]1c1ccccc1C | > 10000 nM
10) COc1ncc(C(F)(F)F)cc1CO[C@H]1[C@H](C(C)(C)C)[C@@H](C(=O)O)N(C(=O)O[C@@H](C)C(F)(F)F)[C@H]1c1cccnc1OC(C)C | < 1000 nM
11) COc1ncc(C(F)(F)F)cc1CO[C@H]1[C@H](C(C)(C)C)[C@@H](C(=O)O)N(C(=O)OC(C)C)[C@H]1c1ccccc1Br | 1000 to 10000 nM
12) COc1ncc(C(F)(F)F)cc1CO[C@H]1[C@H](C(C)(C)C)[C@@H](C(=O)O)N(C(=O)[C@@H]2CCCCO2)[C@H]1c1ccccc1Cl | 1000 to 10000 nM
13) Cc1ccccc1[C@H]1[C@@H](OCc2nc3ccccc3n2C)[C@H](C(C)(C)C)[C@@H](C(=O)O)N1C(=O)[C@@H]1CCCCO1 | > 10000 nM
14) COc1ncc(-c2ccccc2)cc1CO[C@H]1[C@H](C(C)(C)C)[C@@H](C(=O)O)N(C(=O)C2CCCCC2)[C@H]1c1ccccc1F | 1000 to 10000 nM
15) CC(C)Oc1ncccc1[C@H]1[C@@H](OCc2cc3cc(C4CCC4)ccc3o2)[C@H](C(C)(C)C)[C@@H](C(=O)O)N1C(=O)[C@@H]1CCCCO1 | 1000 to 10000 nM
16) COc1ncc(C2CCC2)cc1CO[C@H]1[C@H](C(C)(C)C)[C@@H](C(=O)O)N(C(=O)OC(C)C)[C@H]1c1ccccc1 | 1000 to 10000 nM
